Tested on: A498 renal
Test: NCI-60 one-dose screen, 48 h (100 = growth as untreated, 0 = no growth, -100 = all killed)
Details: 10 µM
The panel holds about 83,000 compounds, 20% with a hit somewhere; the sample as a whole holds those more often. Calls of active or inactive are those of the source. How the source made its calls: active means growth percent below 10; inactive means the rest.
Exercise: state measured growth for each of the compounds provided.

Use the examples below as a reference point.
compound	growth
C[C@H]1[C@H](OC(=O)CCC(=O)N(CCCc2cn(-c3ccc([N+](=O)[O-])cc3)nn2)CCNc2ccnc3cc(Cl)ccc23)O[C@@H]2OC3(C)CC[C@H]4[C@H](C)CC[C@@H]1[C@@]24OO3	116% (inactive)
O=C([Se]C1C=CCCC1)c1ccc(C(=O)[Se]C2C=CCCC2)s1 (stereo unspecified)	20.6% (inactive)
C[C@H]1[C@H](OC(=O)CCC(=O)Nc2cnccn2)O[C@@H]2OC3(C)CC[C@H]4[C@H](C)CC[C@@H]1[C@@]24OO3	101% (inactive)

Parameter requested: growth. Apply to each item below.
1. C[C@H]1[C@@H](CC(=O)N[C@@H](Cc2coc3ccccc23)B(O)O)O[C@@H]2OC3(C)CC[C@H]4[C@H](C)CC[C@@H]1[C@@]24OO3
2. CC1=C2C(=C[C@@](C)(COP(=O)(Oc3ccccc3)Oc3ccccc3)[C@@H]2O)C(=O)[C@@](C)(O)C12CC2

1: 36.6% (inactive); 2: -39.4% (active)

Parameter requested: growth. Apply to each item below.
1. COc1ccc(/C=C/C(=O)c2nc3ccccc3n2Cc2ccc(Br)cc2)cc1
2. COc1cc(OC)c(S(=O)(=O)N(CCCl)CCCl)cc1C(=O)/C=C/c1ccc(C)cc1
3. O=C(/C=C/c1ccc(Br)cc1)c1nc2ccccc2n1Cc1ccc(Br)cc1
4. O=C(/C=C/c1ccc(Cl)cc1)c1nc2ccccc2n1Cc1ccc(F)cc1
5. C=CC[Se]C(=O)c1cncc(C(=O)[Se]CC=C)c1
6. CCC[Se]C(=O)c1ccc(C(=O)[Se]CCC)s1
7. CC[C@]12C=CCN3CC[C@@]4(c5ccc(OC)cc5N(C)[C@H]4[C@@](O)(C(=O)OC)[C@@H]1OC(=O)CCCC[P+](C1CCCCC1)(C1CCCCC1)C1CCCCC1)[C@@H]32
8. O=C(/C=C/c1ccc(F)cc1)c1nc2ccccc2n1Cc1ccc(F)cc1

1: 122% (inactive); 2: 110% (inactive); 3: 82.7% (inactive); 4: 125% (inactive); 5: 29.9% (inactive); 6: -64.9% (active); 7: -0.0449% (active); 8: 112% (inactive)

====

Test system: LOX IMVI melanoma
Assay: NCI-60 one-dose screen, 48 h
Details: 10 µM
Compounds without any hit were thinned out: in the full panel of roughly 83,000, 20% have a hit. Activity calls are given as the source filed them. The calls were made as follows: active = growth percent below 10; inactive = the rest.
Your reply should match one of these outcome classes. 1 (yes) (active), 0 (no) (inactive)

Examples with answers:
molecule	assigned_label
C[C@H]1[C@H](OC(=O)CCC(=O)Nc2cnccn2)O[C@@H]2OC3(C)CC[C@H]4[C@H](C)CC[C@@H]1[C@@]24OO3	1 (yes)
CC1=C(COCCOC(=O)c2ccc(S(=O)(=O)F)cc2)C2=C(C)C3(CC3)[C@@](C)(O)C(=O)C2=C1	1 (yes)
CC1=C(CCC=NNC(N)=O)C2=C(C)C3(CC3)[C@@](C)(O)C(=O)C2=C1	1 (yes)
COc1cc(OC)c(S(=O)(=O)N(CCCl)CCCl)cc1C(=O)/C=C/c1ccc(C)cc1	1 (yes)
COc1cc2cc(C(=O)N3C[C@@H](CCl)c4c3cc(OC(=O)N3CCN(C)[C@@H]5CSSC[C@H]53)c3ccccc43)[nH]c2c(OC)c1OC	1 (yes)

Query molecule follows.
Per the assay record, what outcome was assigned to `CC[C@@]12CC(C(=O)OC)=C3Nc4cc5c(cc4[C@@]34CCN(C[C@H]3O[C@H]31)[C@@H]24)[C@@H]1[C@H](O5)[C@@H](O)[C@@]2(CC)CC(C(=O)OC)=C3Nc4cc(OC)ccc4[C@@]34CCN1[C@@H]24` ?
1 (yes)
